Assay: qHTS for Inhibitors of ATXN expression: Validation (AID 588378); also: nearly all actives have a fitted effect of over 75% in size
Settings: cell-based ATXN2 expression reporter assay, luminescence; series mostly up to 57.1 µM
Text: Spinocerebellar ataxia type 2 (SCA2) is a multisystem neurodegenerative disease caused by a dominantly-acting mutation leading to expansion of a polyQ domain in the ataxin-2 protein (ATXN2). SCA2 patients develop progressive ataxia and later lose function in other neuronal systems. Prominent parkinsonian signs develop in some patients. Similar to many neurodegenerative disorders, no symptomatic or disease-modifying treatments are known. […]
Results filed as inconclusive are left out. Active and inactive are the calls of the source. Calls follow the shape of the dose curve; as a rule, active = well fitted inhibition curve with a large enough effect; inconclusive = small, poorly fitted or top-dose-only effect; inactive = no such curve, though single readings can be large or run the other way.
Can you answer with just one of these options? active, inactive

Query string: Field: outcome | Entry: Fc1ccc(C(OCCN2CCN(CCCc3ccccc3)CC2)c2ccc(F)cc2)cc1
Result string: active

Query string: Called result for Cc1cc2c(C(C)C)c(O)c(O)c(C=O)c2c(O)c1-c1c(C)cc2c(C(C)C)c(O)c(O)c(C=O)c2c1O
Result string: active

Query string: Returns: the outcome recorded for O=C1NCN(c2ccccc2)C12CCN(CC1COc3ccccc3O1)CC2 (stereo not given) in this assay.
Result string: inactive

Query string: Hello, I am checking results. What call was entered for NCC1(CC(=O)O)CCCCC1 ?
Result string: inactive

Query string: Could you check what this test reported for CC[C@@H](CO)NC(=O)[C@@H]1C=C2c3cccc4c3c(cn4C)C[C@H]2N(C)C1 ?
Result string: inactive

----------
Tested on: DFO2036
Assay: qHTS profiling for inhibitors of Plasmodium falciparum proliferation (AID 504749); also: nearly all actives have a fitted effect of over 60% in size
Settings: P. falciparum in erythrocytes, SYBR Green DNA, 72 h; series mostly up to 28.7 µM
Results filed as inconclusive are left out. Active and inactive are the calls of the source. The call rests on the fitted dose curve; in most records, active means well fitted inhibition curve with a large enough effect; inconclusive means small, poorly fitted or top-dose-only effect; inactive means flat fitted curve, though single readings scatter.
outcome.measure: outcome

CCC(COC(=O)c1cc(OC)c(OC)c(OC)c1)(c1ccccc1)N(C)C (stereo not drawn): inactive
CCN(CC)CCOC(=O)C(O)(c1ccccc1)c1ccccc1: inactive
CC(C)CC(N(C)C)C1(c2ccc(Cl)cc2)CCC1 (stereo not drawn): inactive

----------
System: W2
Assay: qHTS profiling for inhibitors of Plasmodium falciparum proliferation (AID 504749); also: nearly all actives have a fitted effect of over 60% in size
Conditions: P. falciparum in erythrocytes, SYBR Green DNA, 72 h; series mostly up to 28.7 µM
Records with an inconclusive call do not appear. Active and inactive are the calls of the source. The call rests on the fitted dose curve; in most records, active means well fitted inhibition curve with a large enough effect; inconclusive means small, poorly fitted or top-dose-only effect; inactive means flat fitted curve, though single readings scatter.
Entry note: the call must match one of true = active, false = inactive

Query string: What was the test verdict on CC[N+]1(C)CCCC(OC(=O)C(O)(c2ccccc2)c2ccccc2)C1 (centres undefined) ?
Result string: false

Query string: Status in this test for O=c1[nH]c2ccccc2n1C1CCN(CCCC(c2ccc(F)cc2)c2ccc(F)cc2)CC1 ?
Result string: true

Query string: Call for entry Nc1ccncc1 :
Result string: false

Query string: Assay result, entry Cc1cccc(C)c1NC1=NCCCS1 — outcome?
Result string: true

Query string: Could you kindly confirm the outcome this assay logged for c1ccc2c(c1)Nc1ccccc1S2 ?
Result string: true

Query string: Dear colleague, could you share the recorded outcome for CC[C@@H](CO)NC(=O)[C@@H]1C=C2c3cccc4[nH]cc(c34)C[C@H]2N(C)C1 when you have a moment?
Result string: false

Query string: Could you please tell me the result logged for Cc1ccc(-c2nc3ccc(C)cn3c2CC(=O)N(C)C)cc1 in this assay?
Result string: false

Query string: What is the recorded call for this compound in the test? COc1ccc(C(=O)c2c(C)n(CCN3CCOCC3)c3ccccc23)cc1
Result string: false

Query string: // return assay outcome for Fc1ccc(C(OCCN2CCN(CCCc3ccccc3)CC2)c2ccc(F)cc2)cc1
Result string: true

Query string: Which result was noted for this compound in the test: CN1CCN(C(=O)O[C@H]2c3nccnc3C(=O)N2c2ccc(Cl)cn2)CC1
Result string: false

Query string: Hi, do you know how CC(C)CC(N(C)C)C1(c2ccc(Cl)cc2)CCC1 (centres undefined) came out in this test?
Result string: false

Query string: Please indicate how the test categorized NCC(CC(=O)O)c1ccc(Cl)cc1 (centres undefined) .
Result string: false

Query string: Could you check what this test reported for NP(N)(=O)NC(=O)c1ccc(F)cc1 ?
Result string: false

Query string: Tell me the recorded outcome of this test for CC(C)(C)NCC(O)c1cc(Cl)c(N)c(Cl)c1 (centres undefined) .
Result string: true

Query string: What is the recorded call for this compound in the test? CC1OC(C)OC(C)O1 (centres undefined)
Result string: false

Query string: What did this assay record as the result for NCCc1cc(O)c(O)cc1O ?
Result string: false

Query string: Call for entry Clc1ccc(COC(Cn2ccnc2)c2ccc(Cl)cc2Cl)cc1 (centres undefined) :
Result string: true

Query string: I'd appreciate the recorded outcome for O=C(NC(O)C(Cl)(Cl)Cl)NC(O)C(Cl)(Cl)Cl (centres undefined) from this test.
Result string: false

Query string: How was CN(C)CCc1ccc(O)cc1 classified in this test?
Result string: false
